I'd be grateful if you could share measured half-life for these entries.
Assay Procedure: β-Lactam stability in rat plasma
Assay type: in vitro ADME
Condition Notes: normal rat plasma, room temperature; read-out: Rat Plasma Stability (T1/2; min)

Q: Return value of half-life for input CNC(=O)N1C(=O)[C@H](Cc2ccnc(N)c2)[C@H]1C(=O)O [Example 55] , no commentary.
A: > 1.67 h

Q: Return value of half-life for input Nc1cc(C[C@H]2C(=O)N(C(=O)N[C@@H](c3ccccc3)C(F)(F)F)[C@@H]2C(=O)O)ccn1 [Example 44] , no commentary.
A: > 1.67 h

Q: Return value of half-life for input Nc1cc(C[C@H]2C(=O)N(C(=O)NCc3ccccc3)[C@@H]2C(=O)O)ccn1 [Example 48] , no commentary.
A: > 1.67 h

Q: Return value of half-life for input C[C@@H](NC(=O)N1C(=O)[C@H](Cc2ccnc(N)c2)[C@H]1C(=O)O)C1CCCCC1 [Example 38] , no commentary.
A: > 1.67 h

Q: Return value of half-life for input CCOC(=O)[C@@H]1[C@@H](Cc2ccnc(NC(=O)OCOC(=O)C(C)C)c2)C(=O)N1C(=O)N[C@@H](C1CCCCC1)C(F)(F)F [Example 140] , no commentary.
A: < 1.67 h

Q: Return value of half-life for input CC(NC(=O)N1C(=O)[C@H](Cc2ccnc(N)c2)[C@H]1C(=O)O)c1ccc(OC(F)(F)F)cc1 (some centres unmarked) [Example 47] , no commentary.
A: > 1.67 h

Q: Return value of half-life for input CC(NC(=O)N1C(=O)[C@H](Cc2ccnc(N)c2)[C@H]1C(=O)O)c1cccc(F)c1 (some centres unmarked) [Example 42] , no commentary.
A: > 1.67 h

Q: Return value of half-life for input CON=C[C@@H]1[C@@H](Cc2ccnc(N)c2)C(=O)N1C(=O)N[C@H](C)c1ccccc1 [Example 53] , no commentary.
A: < 1.67 h

Just for reference, patent US11198673B2 is where these values come from.
